target.under.test: recombinant PDK-1 (Homo sapiens, UniProt O15530)
Construct: purchased Upstate (Lake Placid, N.Y.)
Sequence (O15530 whole entry): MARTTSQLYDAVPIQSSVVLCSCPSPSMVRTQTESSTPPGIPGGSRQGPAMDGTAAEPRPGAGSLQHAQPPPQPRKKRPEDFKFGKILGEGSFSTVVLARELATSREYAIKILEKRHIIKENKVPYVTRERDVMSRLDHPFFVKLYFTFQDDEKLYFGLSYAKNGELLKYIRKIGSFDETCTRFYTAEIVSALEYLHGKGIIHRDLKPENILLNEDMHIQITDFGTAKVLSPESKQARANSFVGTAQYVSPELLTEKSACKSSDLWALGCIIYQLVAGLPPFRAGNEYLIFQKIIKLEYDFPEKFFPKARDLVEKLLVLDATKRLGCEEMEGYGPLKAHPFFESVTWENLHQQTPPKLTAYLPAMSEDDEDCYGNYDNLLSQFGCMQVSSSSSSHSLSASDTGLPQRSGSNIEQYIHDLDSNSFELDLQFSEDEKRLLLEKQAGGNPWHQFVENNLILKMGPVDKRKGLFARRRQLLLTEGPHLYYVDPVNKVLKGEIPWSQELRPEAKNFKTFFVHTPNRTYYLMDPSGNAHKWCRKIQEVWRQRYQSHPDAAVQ
protocol.details: PDK-1 kinase activity (Upstate kit, SGK-coupled, cell-free)
Format: biochemical
Reported pIC50 values for the following molecules.
Formally, pIC50 is defined as -log10 of the concentration c, with c in mol/L.

Here's what some known entries look like.
{"molecule": "NS(=O)(=O)c1ccc(-n2nc(C(F)(F)F)cc2-c2ccc(-c3cc(Cl)cc(Cl)c3)cc2)cc1", "target.under.test": "recombinant PDK-1 (Homo sapiens, UniProt O15530)", "measurement.label": "pIC50", "measured": 4.74}
{"molecule": "NS(=O)(=O)c1ccc(-n2nc(C(F)(F)F)cc2-c2c[nH]c3ccccc23)cc1", "target.under.test": "recombinant PDK-1 (Homo sapiens, UniProt O15530)", "measurement.label": "pIC50", "measured": 4.19}
{"molecule": "N=C(NO)c1ccc(-n2nc(C(F)(F)F)cc2-c2ccc3c(ccc4ccccc43)c2)cc1", "target.under.test": "recombinant PDK-1 (Homo sapiens, UniProt O15530)", "measurement.label": "pIC50", "measured": 4.40}

For the molecule shown here, NS(=O)(=O)c1ccc(-n2nc(C(F)(F)F)cc2-c2cc3ccccc3c3ccccc23)cc1 , give the reported pIC50. 4.38

I would be grateful if you could share the reported pIC50 for NS(=O)(=O)c1ccc(-n2nc(C(F)(F)F)cc2-c2ccc(-c3ccc(Cl)cc3)cc2)cc1 . 4.66

Any idea what pIC50 was measured for CCCCc1ccc(-c2cc(C(F)(F)F)nn2-c2ccc(S(N)(=O)=O)cc2)cc1 ? 4.70

Give its pIC50 value. Item: NS(=O)(=O)c1ccc(-n2nc(C(F)(F)F)cc2-c2ccc(CCCBr)cc2)cc1 4.42

Tell me the measured pIC50 of NS(=O)(=O)c1ccc(-n2nc(C(F)(F)F)cc2-c2ccc(-c3cc(Cl)c(Cl)cc3Cl)cc2)cc1 , please. 5.05

Param item = [N-]=[N+]=NCCCc1ccc(-c2cc(C(F)(F)F)nn2-c2ccc(S(N)(=O)=O)cc2)cc1 ; retrieve measured pIC50. 4.47

Look at this molecule and give its reported pIC50. NS(=O)(=O)c1ccc(-n2nc(C(F)(F)F)cc2-c2ccc(CCBr)cc2)cc1 4.38

Entry under review: CC(C)(C)c1ccc(-c2cc(C(F)(F)F)nn2-c2ccc(S(N)(=O)=O)cc2)cc1 . Reported pIC50? 4.47

pIC50 lookup needed for [N-]=[N+]=NCCc1ccc(-c2cc(C(F)(F)F)nn2-c2ccc(S(N)(=O)=O)cc2)cc1 , thanks. 4.49

Values from patent US20060079566A1
